measurement.target: corticotropin releasing factor 1 receptor; further: reference of the scale not given here
assay.notes: cell-based or functional assay
Ends that are not written are not given here.
Kind request: treat 10% as inclusive, so CRF1R Emax at 10% or higher is satisfied, anything lower is not satisfied.

Confirm if CRF1R Emax reported for the binder SQEPPISLDLPFQLLREVLEMTKADQLAQQAHSNRKLLDIA-NH2 [SEQ ID NO 91] is 10% or above. not satisfied

Confirm if CRF1R Emax reported for the binder ZGPPISIDLPFELLRKMIEIEKQEKEKQQAANNRLLLDTI (C-terminal amide) [SEQ ID NO 67] is 10% or above. satisfied

Confirm if CRF1R Emax reported for the binder ZGPPISIDLPQHLLRKMIEIEKQEKEKQQAANNRLLLDTI (C-terminal amide) [SEQ ID NO 207] is 10% or above. satisfied

Confirm if CRF1R Emax reported for the binder ZGPPISIDLPYILLRKMIEIEKQEKEKQQAANNRLLLDTI (C-terminal amide) [SEQ ID NO 204] is 10% or above. satisfied

Confirm if CRF1R Emax reported for the binder ZGPPISIDLPIYLLRKMIEIEKQEKEKQQAANNRLLLDTI (C-terminal amide) [SEQ ID NO 79] is 10% or above. not satisfied
